The values you see were collected from patent US4948782A.

# System: Staphylococcus aureus ATCC 6538P
# protocol description: MIC, Staphylococcus aureus ATCC 6538P (SA(1))
# Type: cell-based
# assay setup: Staphylococcus aureus, ATCC6538P, Staphylococcus aureus ATCC 6538P; read-out: MIC SA (1)
Documented MIC across a set of molecules

CC[C@H]1OC(=O)[C@H](C)[C@@H](O[C@H]2C[C@@](C)(OC)[C@@H](O)[C@H](C)O2)[C@H](C)[C@@H](O[C@@H]2O[C@H](C)C[C@H]([N+](C)(C)CC)[C@H]2O)[C@@]2(C)CC(C)=C(O2)[C@H](C)[C@@H](O)[C@]1(C)O [Compound 61]; > 100 mg/L
CCC1OC(=O)C(C)C(OC2CC(C)(OC)C(O)C(C)O2)C(C)C(OC2OC(C)CC(N(C)CC)C2O)C2(C)CC(C)=C(O2)C(C)C2OC(=O)OC12C (stereo not shown) [Compound 54]; > 100 mg/L

**Query** Quick one: MIC of C=CCN(C)C1CC(C)OC(OC2C(C)C(OC3CC(C)(OC)C(O)C(C)O3)C(C)C(=O)OC(CC)C(C)(O)C(O)C(C)C3=C(C)CC2(C)O3)C1O (stereo not shown) [Compound 34] ?
**Result** > 100 mg/L

**Query** Quick one: MIC of CCC1OC(=O)C(C)C(OC2CC(C)(OC)C(O)C(C)O2)C(C)C(OC2OC(C)CC(N3CCCCC3)C2O)C2(C)CC(C)=C(O2)C(C)C(O)C1(C)O (stereo not shown) [Compound 22] ?
**Result** > 100 mg/L
